Biological target: Tyrosyl-tRNA synthetase, putative (Trypanosoma cruzi (strain CL Brener)) (UniProt Q4DSP6)
Sequence (Q4DSP6 as listed by the source): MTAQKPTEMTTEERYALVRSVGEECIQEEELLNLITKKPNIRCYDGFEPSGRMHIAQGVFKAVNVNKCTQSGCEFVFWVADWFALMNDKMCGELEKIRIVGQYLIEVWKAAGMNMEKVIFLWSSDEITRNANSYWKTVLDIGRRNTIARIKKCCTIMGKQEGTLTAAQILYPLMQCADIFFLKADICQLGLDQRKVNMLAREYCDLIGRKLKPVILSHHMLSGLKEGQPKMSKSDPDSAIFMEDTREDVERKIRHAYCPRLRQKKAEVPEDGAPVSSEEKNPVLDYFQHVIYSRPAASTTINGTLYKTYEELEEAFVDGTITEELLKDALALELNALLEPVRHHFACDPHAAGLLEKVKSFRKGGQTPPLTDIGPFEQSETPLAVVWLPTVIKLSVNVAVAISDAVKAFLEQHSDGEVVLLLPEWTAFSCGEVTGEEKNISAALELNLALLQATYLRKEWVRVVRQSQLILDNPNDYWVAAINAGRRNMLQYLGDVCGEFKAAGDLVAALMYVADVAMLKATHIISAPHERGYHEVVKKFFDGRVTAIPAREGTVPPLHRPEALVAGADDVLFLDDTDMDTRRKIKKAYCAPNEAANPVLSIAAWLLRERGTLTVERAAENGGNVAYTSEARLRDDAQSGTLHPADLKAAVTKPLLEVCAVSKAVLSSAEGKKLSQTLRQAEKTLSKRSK
Assay: Trypanosoma cruzi tyrosyl tRNA synthetase (TcYRS) SOP
Type: functional
Design: scale not given: direction of the effect not stated beside the values
Settings: 30 µM
// Percent Effect lookup, one value per entry
# number only, unit % dropped from output

Reference set (10 entries):
COMPOUND	EXPERIMENTAL READOUT	SCALE UNIT	REPORTED VALUE
Clc1ccccc1C1(c2ccnc(-c3ccncc3)n2)CCNCC1	Percent Effect	%	13.6
CC(NC1(CNC(=O)Cn2cccn2)CCOCC1)c1ccccc1 (stereo unspecified)	Percent Effect	%	16.1
Cc1ccc(-c2noc(CN3CCOC(Cn4cncn4)C3)n2)cc1 (stereo unspecified)	Percent Effect	%	-1.22
CC(C)OCCCNC(=O)CS(=O)(=O)Cc1ccc(Cl)c(Cl)c1	Percent Effect	%	12.2
COc1cccc2c1ccn2CCNC(=O)C(C)C	Percent Effect	%	12.8
COc1ccc(NC(=O)c2ccc[nH]2)c(N2CCN(C(C)=O)CC2)n1	Percent Effect	%	13.4
CC(C(=O)NCc1ccnc(N2CCCC2)c1)n1cncn1 (stereo unspecified)	Percent Effect	%	0
O=C(NCCNc1ncccn1)C1CCN(C(=O)C2CC2)CC1	Percent Effect	%	13.4
CCS(=O)(=O)N1CCO[C@H]2[C@H](OCCCn3cccn3)CC[C@@H]21	Percent Effect	%	7.5
Cc1nn(C)cc1-c1cc(C(F)(F)F)c2c(C)nn(CC(=O)O)c2n1	Percent Effect	%	0

*Q* API: value(readout=Percent Effect, system=Tyrosyl-tRNA synthetase, putative (Trypanosoma cruzi (strain CL Brener)) (UniProt Q4DSP6)) for record CCN1CCC2(CC1)CC(NC(=O)N(C)C)c1cc(C)ccc12 (stereo unspecified)
*A* -50
